# Measurement target: T1, VEGFR-1-Fc (UniProt P17948 27-338)
# T1 construct: domain: first three Ig domains; expressed in Drosophila S2 cells, purified on Protein A sepharose; also called VEGFR-1-Fc fusion protein; not shown: Fc fragment from the Signal-pIgPlus vector
# T1 sequence (P17948 27-338): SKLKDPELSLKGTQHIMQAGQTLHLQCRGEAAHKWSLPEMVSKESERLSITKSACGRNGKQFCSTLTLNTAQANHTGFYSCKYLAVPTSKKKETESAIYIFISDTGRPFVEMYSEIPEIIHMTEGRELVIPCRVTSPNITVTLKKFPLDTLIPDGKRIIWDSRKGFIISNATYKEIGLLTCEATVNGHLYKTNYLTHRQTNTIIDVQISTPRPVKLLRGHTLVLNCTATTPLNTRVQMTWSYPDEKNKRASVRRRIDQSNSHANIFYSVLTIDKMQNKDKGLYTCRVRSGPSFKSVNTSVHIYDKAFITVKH
# Experiment notes: receptor-Fc IP

- Binder: "11-9 (ligand) GQNHHEVVKFMDVYQRSYCHPIETLVDIFQEYPDEIEYIFKPSCVPLMRCGGCCNDEGLECVPTEESNITMQIMRITVPLSQGPKPVTISFLQHNKCECRPKKD"
  binding result: "binds"
